Listing of recorded composite z-score by entry.
tested on: Lefty1; experiment: Lefty1 binders on small-molecule microarrays, primary screen, biochemical, small-molecule microarray, 635/667 nm fluorescence (AID 1139); conditions: small-molecule microarray binding, fluorescence 635/667; higher = more signal

Molecule Smiles	composite z-score
CCOC(=O)C[C@H]1[C@H](OC(=O)c2ccc(-c3ccccc3)cc2)[C@@H](NC(=O)C2CCCCC2)c2cc(OCCCO)ccc2N1C(=O)c1ccccc1	0.544
C=CCNC(=O)[C@@H]1[C@H]2C(=O)O[C@H](c3ccccc3)[C@H](c3ccccc3)N2[C@H](c2ccccc2OCCO)[C@@]12C(=O)N(C(=O)OCCOC)c1ccc(C#CC3=CCCCC3)cc12	0.949
O=C(O)[C@H](Cc1ccccc1)n1cc(-c2ccccn2)nn1	0.5
O=C1C[C@@](C(=O)NCC(F)(F)F)(c2ccc([N+](=O)[O-])cc2)[C@@H](c2ccc(CO)cc2)N1C1CCCCC1	0.761
CC(C)C(=C=CC[C@H](O)c1ccc(OCCO)cc1)C[C@H](O)c1cc(Cl)cc(Cl)c1O	1.22
CCOC(=O)C1=CC[C@@H](c2ccccc2C(F)(F)F)N(S(=O)(=O)c2ccc(C)cc2)C1	-0.356
CN(C)CCCCNC(=O)[C@H]1C[C@H]2C(=O)N3CCC[C@H]3C(=O)N2[C@H]1c1ccc(O)cc1	-0.428
NC(N)=NCc1cn(CCc2c[nH]c3ccccc23)nn1	1.05

* * *

molecular target: Fibroblast growth factor 10 (Homo sapiens); test: FGF10 binders on small-molecule microarrays, primary screen, biochemical, small-molecule microarray, 635 nm fluorescence (AID 1102); settings: FGF10 binding, fluorescence 635 nm, higher = more signal
composite z-score vs 0.5: at or above is met, below is not met.

> print(dat)
                                    compound  assigned.label
 1  CN1C2C=C(CCCO)C(C3C(=O)N(C(N)=O)C(=O)C32)C1c1cccs1 (stereo unspecified)             met
 2  COc1ccc(NN2C(C(O)c3ccco3)C=CC3C(=O)N(C4CCCCC4)C(=O)C32)cc1 (stereo unspecified)             met
 3  Cc1c(NC(=O)/C(C#N)=C/C=C/c2ccc(N(C)C)cc2)c(=O)n(-c2ccccc2)n1C             met
 4  C[C@]1(C(=O)NC2CC2)c2ccccc2C(=O)N(Cc2ccc(OC(F)(F)F)cc2)[C@H]1c1ccc(CO)cc1         not met
 5  CCCCC(=C=CC[C@@H](O)c1ccc(OCCO)cc1)C[C@@H](O)COCc1ccccc1             met
 6  CN(C)CCCCNC(=O)[C@H]1C[C@H]2C(=O)N[C@@H](CCCCN(C)C)C(=O)N2[C@H]1c1cccc(OCCO)c1             met
 7  COC(=O)Cn1c(C(=O)N2CCCC2)cc2c1C[C@H]1CN(C(=O)c3ccccc3)[C@@](Cc3ccc(F)cc3)(C(=O)OC)[C@@H]21         not met
 8  COC(=O)[C@@]1(Cc2ccccc2)[C@H]2c3cc(C(=O)N4CCCC4)[nH]c3C[C@H]2CN1C(=O)c1ccccc1         not met
 9  Cc1ccc(S[C@]2(C(=O)NCc3ccccc3)CC(=O)N(C(C)C)[C@@H]2c2ccc(CO)cc2I)cc1         not met
10  CCOC(=O)C[C@H]1[C@H](OC(=O)c2ccc(-c3ccccc3)cc2)[C@@H](NC(=O)c2ccc3ccccc3n2)c2cc(OCCCO)ccc2N1C(=O)c1ccccc1             met
11  [N-]=[N+]=Nc1ccccc1[C@@H]1OC(c2ccc(OCCCO)cc2)=N[C@]1(CCS(=O)(=O)c1ccccc1)C(=O)NCCN1CCOCC1             met
12  [N-]=[N+]=Nc1ccccc1C[C@]1(C(=O)NCc2ccccc2)N=C(c2ccc(OCCCO)cc2)O[C@H]1c1ccccc1             met
13  CCOC(=O)C1=CC[C@@H](c2ccccc2)N(S(=O)(=O)c2ccc(C)cc2)C1         not met
14  CON(C)C(=O)C=C1C[C@@H](c2cccc(Cl)c2)O[C@@H](c2cccc(Cl)c2)O1         not met
15  COc1cc(CO)cc(I)c1O[C@H]1C=C(C(=O)NCCO)C[C@@H](N(Cc2ccc(F)cc2)C(=O)C2CCCO2)[C@@H]1O (stereo partly specified)         not met
